Target: GFP-SmSERT-A (Schistosoma mansoni, UniProt Q3HL76)
Assay: cell-based
Assay type: cell-based
Settings: read-out: IC50 for serotonin transporter substrates, SmSERT-A
Below, each of the molecules is paired with its reported pIC50 value.
// returns pIC50 (minus log10 of molar concentration), number only

Known pIC50 results, listed for orientation:
Fill in: pIC50 of C[C@H](N)Cc1ccccc1 [S(+)Amphetamine] is ___ 3.52

Next: Cl.Cl.Clc1cccc(N2CCNCC2)c1 [m-CPP] 4.24

In the following, a different molecule is considered.
Fill in: pIC50 of CNC(C)Cc1ccc2c(c1)OCO2 (racemic) [(±)MDMA] is ___ 3.50
